// values below are reported melting point

* Cc1nc2c(c(-c3ccc(Cl)cc3Cl)c(C#N)c(=O)n2-c2cccc(C(F)(F)F)c2)c(=O)[nH]1 [Compound 7c] | 333 to 335 °C
* N#Cc1c(-c2ccc([N+](=O)[O-])cc2)c(C#N)c(=O)n(-c2cccc(C(F)(F)F)c2)c1N [Compound 5c] | 229 to 230 °C
* CC(=O)Oc1ccc(-c2c(C#N)c(=O)n(-c3cccc(C(F)(F)F)c3)c3nc(C)[nH]c(=O)c23)cc1 [Compound 7d] | 320 to 322 °C
* N#Cc1c(-c2ccc(Cl)cc2)c2c(=O)[nH]cnc2n(-c2cccc(C(F)(F)F)c2)c1=O [Compound 6b] | 350 to 352 °C
* N#Cc1c(-c2ccc(Cl)cc2)c(C#N)c(=O)n(-c2cccc(C(F)(F)F)c2)c1N [Compound 5d] | 324 to 326 °C
* N#Cc1c(-c2ccc(Cl)cc2Cl)c(C#N)c(=O)n(-c2cccc(C(F)(F)F)c2)c1N [Compound 5e] | 239 to 241 °C
* Cc1nc2c(c(-c3ccccc3)c(C#N)c(=O)n2-c2cccc(C(F)(F)F)c2)c(=O)[nH]1 [Compound 7a] | 308 to 310 °C
* N#Cc1c(-c2ccc(O)cc2)c2c(=O)[nH]cnc2n(-c2cccc(C(F)(F)F)c2)c1=O [Compound 6a] | 300 to 302 °C
* COc1cc(-c2c(C#N)c(=O)n(-c3cccc(C(F)(F)F)c3)c3nc(C)[nH]c(=O)c23)cc(OC)c1OC [Compound 7e] | 150 to 152 °C
* Cc1nc2c(c(-c3ccc(Cl)cc3)c(C#N)c(=O)n2-c2cccc(C(F)(F)F)c2)c(=O)[nH]1 [Compound 7b] | 330 to 332 °C

melting point reported for this compound N#Cc1c(-c2ccccc2)c(C#N)c(=O)n(-c2cccc(C(F)(F)F)c2)c1N [Compound 5a] : 280 to 282 °C

COc1cc(-c2c(C#N)c(N)n(-c3cccc(C(F)(F)F)c3)c(=O)c2C#N)cc(OC)c1OC [Compound 5f] yielded melting point of 195 to 197 °C

Reported melting point of N#Cc1c(-c2ccc(O)cc2)c(C#N)c(=O)n(-c2cccc(C(F)(F)F)c2)c1N [Compound 5b] : 330 to 332 °C

Measured values drawn from paper PMC9655118 for this set.
